# experimental.system: Rhodesain (Trypanosoma brucei rhodesiense)
# Sequence (Q95PM0 whole entry): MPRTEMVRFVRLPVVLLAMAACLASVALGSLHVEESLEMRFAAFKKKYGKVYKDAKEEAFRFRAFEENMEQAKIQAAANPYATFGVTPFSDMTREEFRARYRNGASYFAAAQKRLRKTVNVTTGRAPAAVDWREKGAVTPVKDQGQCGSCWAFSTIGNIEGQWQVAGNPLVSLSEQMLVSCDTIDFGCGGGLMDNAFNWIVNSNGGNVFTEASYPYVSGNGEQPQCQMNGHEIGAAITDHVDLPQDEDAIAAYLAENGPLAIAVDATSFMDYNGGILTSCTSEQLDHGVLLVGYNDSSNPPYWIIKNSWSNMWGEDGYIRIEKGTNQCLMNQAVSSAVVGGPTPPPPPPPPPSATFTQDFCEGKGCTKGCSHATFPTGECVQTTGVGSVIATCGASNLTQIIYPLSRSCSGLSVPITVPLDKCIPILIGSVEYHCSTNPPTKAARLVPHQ
# measurement.notes: Inhibition of […] after 5 mins by spectrofluorimetry
pIC50: −log10 of the molar value.
assay.endpoint: pIC50

Ask: # pIC50 lookup, item CN1C(=O)[C@]23CC4=CC=C[C@H](O)[C@H]4N2C(=O)[C@@]1(CO)SS3
Result: < 4.30

Ask: Which pIC50 reading was recorded for the compound Cc1ccc(/C(=N\NC(N)=S)c2cc(C(F)(F)F)cc(C(F)(F)F)c2)cc1 ?
Result: 7.36

Ask: Requested field: pIC50. Item: CS[C@]1(Cc2c[nH]c3ccccc23)NC(=O)[C@](CO)(SC)N(C)C1=O
Result: < 4.30

Ask: So what's the measured pIC50 for this one? CS[C@]1(CO)C(=O)N2[C@H]3C(=CC=C[C@@H]3O)C[C@@]2(SC)C(=O)N1C
Result: < 4.30

Ask: Entry CN1C(=O)[C@]23SS[C@@]1(C)C(=O)N2[C@H]1Nc2ccccc2[C@@]1([C@@]12c4ccccc4N[C@@H]1N1C(=O)[C@]4(CO)SS[C@]1(C(=O)N4C)[C@H]2O)[C@@H]3O has what pIC50?
Result: < 4.30
